Assay Info: gradient 5% acetonitrile 3 min, to 50% in 2 min, to 85% in 15 min, held 3 min, 100 µL/min
Condition Notes: column: Zorbax Extend-C18 2.1 x 50 mm; eluents: water / acetonitrile, 0.1% formic acid
Readout Name: RP-LC retention time (s)

Record summary for COc1ccc(C)c2sc(NCCCn3ccnc3)nc12 : reported RP-LC retention time = 552

P: CCCN(CC1CCOC1)C(=O)Nc1ccc(C)c(Cl)c1 (stereo not given)
Q: O=C(Nc1ccc2ncnc(N3CCCC3)c2c1)c1cncc(Br)c1
Could you please tell me which of these two has the higher RP-LC retention time: P or Q ? Answer with the label corresponding to your selection.
P
(P: 959 s, Q: 639 s)

P: CCCN1C(=O)COc2ccc(-c3noc(-c4ccc(CS(=O)(=O)c5ccccc5)cc4)n3)cc21
Q: Cc1ccc(C2CN(S(=O)(=O)c3ccccc3)CCN2C)cc1 (stereo not given)
I would appreciate it if you could say which entry, P or Q , has the lower RP-LC retention time value. Could you answer with the label of the item you picked?
Q
(Q: 603 s, P: 1130 s)

A: O=C(Cc1nnc(-c2cnccn2)o1)Nc1ccccc1Cl
B: CCc1ccc(Oc2cc(N3CCC(C(=O)NC4CCC(C)CC4)CC3)ncn2)cc1 (stereo not given)
# argmax over RP-LC retention time for candidates A and B Kindly give the label for the entry you pick.
B
(B: 1120 s, A: 681 s)

====

Assay Info: gradient 5% acetonitrile 3 min, to 50% in 2 min, to 85% in 15 min, held 3 min, 100 µL/min
Condition Notes: column: Zorbax Extend-C18 2.1 x 50 mm; eluents: water / acetonitrile, 0.1% formic acid
Readout Name: RP-LC retention time (s)

Value of measured RP-LC retention time for the entry CCC(C)NC(=O)Cn1cnc2nc(N3CCCC(C(=O)NC)C3)sc2c1=O (stereo not drawn) : 608

Entry COc1ccc(-c2nnc(-c3cccnc3NCc3ccc(OC)c(OC)c3)o2)cc1 — recorded RP-LC retention time = 1060

a: COC(=O)c1ccc2c(=O)n(-c3ccccc3)c(N3CCSCC3)nc2c1
b: Cc1ccc(NC(=O)c2[nH]c3cc(C)sc3c2CN(C)C)c(Cl)c1
Which one would you say has the larger RP-LC retention time value: a , or b ? # reply format: chosen label
a

1: Cc1cc(-c2nnc(-c3ccc(F)cc3)o2)c(C)n1CC(=O)NCc1ccc2c(c1)OCO2
2: O=C1CC(C(=O)N2CCN(Cc3ccccc3)CC2)CN1CCc1c[nH]c2ccc(F)cc12 (stereo not drawn)
Param metric = RP-LC retention time; output whichever of 1 , 2 has the minimum value. Your answer should be the label attached to the chosen record.
2

1: CNC(=O)c1c(-c2ccc(F)cc2)oc2cc(N(CCO)S(C)(=O)=O)c(C3CC3)cc12
2: Cc1cc(S(=O)(=O)N2CCCC2c2nc(-c3ccc(Cl)cc3)no2)ccc1F (stereo not drawn)
// select label with min value of measured RP-LC retention time from [ 1 , 2 ] Refer to your chosen item by its label in the answer.
1

====

Assay Info: gradient 5% acetonitrile 3 min, to 50% in 2 min, to 85% in 15 min, held 3 min, 100 µL/min
Condition Notes: column: Zorbax Extend-C18 2.1 x 50 mm; eluents: water / acetonitrile, 0.1% formic acid
Readout Name: RP-LC retention time (s)

A: CCOc1ccccc1N(CC)C(=O)C1CCCN(c2ncnc3c2nc2n3CCCCC2)C1 (stereo not drawn)
B: O=C(NCCC1=CCCCC1)C1CCN(c2ncccc2-c2nc(-c3ccc(Cl)cc3)no2)CC1
Sorting by RP-LC retention time in descending order, would A or B appear first? Respond with the label that goes with your answer.
B

A: Cc1ccc(C)c(Sc2cc(N3CCC(C(=O)NCCCOC(C)C)CC3)ncn2)c1
B: Cc1nc2cc(-c3noc(-c4ccc(Cl)s4)n3)ccc2o1
C: O=C(Nc1nc(C(=O)N2CCN(c3ccccn3)CC2)co1)c1cnccn1
Sort the compounds on RP-LC retention time; start with the lowest figure. Dear reader, please state the labels in the requested order.
C, A, B

a: CCCNC(=O)Cn1c(=O)c2cnc(-c3ccccc3)nc2n(CC)c1=O
b: Cc1cccc(N2CCN(Cc3nc(-c4ccc(N5CCCC(C)C5)nc4)no3)CC2)c1C (stereo not drawn)
Just tell me: smaller RP-LC retention time value, a or b ? Return value: the label identifying the chosen record.
a
(a: 862 s, b: 1260 s)

====

Assay Info: gradient 5% acetonitrile 3 min, to 50% in 2 min, to 85% in 15 min, held 3 min, 100 µL/min
Condition Notes: column: Zorbax Extend-C18 2.1 x 50 mm; eluents: water / acetonitrile, 0.1% formic acid
Readout Name: RP-LC retention time (s)

For this compound ( Cn1cc2c3c(cccc31)CN(C(=O)c1cccs1)CC2 ), measured RP-LC retention time is 876

For this compound ( Cc1cc(C)n(-c2ccnc(NCc3ccc(Br)cc3)n2)n1 ), measured RP-LC retention time is 946

Measured RP-LC retention time, COc1cccc(NS(=O)(=O)c2cc3n(c2)CCCNC3=O)c1 : 632

In plain terms, COc1cccc(-c2c(C(=O)O)nnn2Cc2ccccc2F)c1 has a documented RP-LC retention time of 776

The reported RP-LC retention time of the compound CCn1cc(CN2CCC(N3CC4(CCCCC4)C3c3ccncc3)CC2)cn1 (stereo not given) was 565

# RP-LC retention time (compound: CCN(CC)C(=O)c1ccc2c(c1)N(CC(=O)NCCOC)C(=O)CO2 ) is 624

// field: RP-LC retention time; key: CCOc1ccccc1CNC(=O)C1CCCN(c2ccc(=O)n(-c3ccc(C)c(Cl)c3)n2)C1 (stereo not given) ; value = 828

The recorded RP-LC retention time for entry Cc1ccc(N2CCN(S(=O)(=O)c3cc(-c4nnc(C5CC5)o4)co3)CC2)cc1 equals 818

So for COC(=O)c1scc(-c2ccccc2)c1S(=O)(=O)N1CCN(c2ccccn2)CC1 , the logged RP-LC retention time turned out to be 729

Sample CCn1cc(CN2CCC(C(=O)NCc3ccccc3C)CC2)c2cc(OC)ccc21 ; RP-LC retention time observed: 707

====

Assay Info: gradient 5% acetonitrile 3 min, to 50% in 2 min, to 85% in 15 min, held 3 min, 100 µL/min
Condition Notes: column: Zorbax Extend-C18 2.1 x 50 mm; eluents: water / acetonitrile, 0.1% formic acid
Readout Name: RP-LC retention time (s)

In plain terms, Cc1ccc(C)c(OCC(=O)Nc2nc(-c3ccc(Br)cc3)cs2)c1C has a documented RP-LC retention time of 1430

Per the record, CSc1ccc(CNC(=O)C2CCCN(c3ncnc4c3oc3ccccc34)C2)cc1 (stereo not given) has RP-LC retention time of 786

# compound CC1CCC(C(=O)Nc2ccc(-c3nnc4n3CCCC4)cc2)CC1 (stereo not given) ; its RP-LC retention time = 734

// recorded RP-LC retention time for CCNC(=O)C1CCN(c2nc3ncn(CC(=O)Nc4ccc(C)cc4C)c(=O)c3s2)CC1 : 675

Lab note: COCCNC(=O)NCCn1c(-c2ccc(C)cc2)nc2cccnc21 gave RP-LC retention time of 588

A: O=C1NCCCn2cc(S(=O)(=O)N3CCN(Cc4ccccc4)CC3)cc21
B: Cc1cccc(Sc2nccnc2N2CCC(C(=O)NCCC3=CCCCC3)CC2)c1
Sort A and B by RP-LC retention time descending and give the first. API: response body contains the label of the selected item.
B

1: COc1ccc(-c2csc(C)n2)cc1S(=O)(=O)N1CCN(c2ccccc2)CC1
2: Cc1ccc(NC(=O)Cc2cn3cc(F)ccc3n2)c(C)c1
// max by RP-LC retention time over [ 1 , 2 ] Response format: the label of the selected entry.
1

P: CC1CCCN(C(=O)C2CCN(CCc3c[nH]c4ncccc34)CC2)C1 (stereo not given)
Q: O=C(NCC1CCN(C(=O)c2cc3ccccc3o2)CC1)c1cc(-c2ccccc2)on1
Hi there! Just curious which has the higher RP-LC retention time between P and Q . Choose, then provide that item's label.
Q
(Q: 903 s, P: 586 s)

====

Assay Info: gradient 5% acetonitrile 3 min, to 50% in 2 min, to 85% in 15 min, held 3 min, 100 µL/min
Condition Notes: column: Zorbax Extend-C18 2.1 x 50 mm; eluents: water / acetonitrile, 0.1% formic acid
Readout Name: RP-LC retention time (s)

According to the records, this compound CCOCCOC(=O)C1=C(C)NC2=C(C(=O)C(C(=O)OC)C(C)C2)C1c1cccc(Cl)c1 (stereo not given) displays RP-LC retention time of 931

In plain terms, Cc1cccc(Oc2nccn3c(=O)n(CC(=O)NC(C)CCc4ccccc4)nc23)c1C (stereo not given) has a documented RP-LC retention time of 976

For reference, reported RP-LC retention time for CCc1ccc(CNC(=O)CCC2CCCN(S(=O)(=O)c3ccccc3C)C2)cc1 (stereo not given) stands at 1070

Record Fc1cccc(-c2nc3ncccn3c2NCc2ccc(Cl)cc2)c1 . Reported RP-LC retention time: 834

1: CN1CCN(CCNC(=O)C2CCN(Cc3cn(C)c4ccc(Cl)cc34)CC2)CC1
2: CC(C)c1cc(C2CCCN2C(=O)c2ccsc2)no1 (stereo not given)
Field: entry with larger RP-LC retention time (options 1 / 2 ). Reply with the label of the item you choose.
2
(2: 828 s, 1: 570 s)

a: CCc1nc(NCc2ccc(OC)c(OC)c2)ncc1C(=O)O
b: CN1C(=O)C(C)(C)N(Cc2ccccc2)c2ccccc21
Which of the two gives a bigger number for RP-LC retention time: a or b ? Let me know the label of the one you choose.
b

1: O=c1c2ccccc2c2ccccc2c(=O)n1Cc1ccco1
2: O=c1[nH]c2ccc(NCc3ccc(-c4ccccc4)cc3)cc2[nH]1
Quick one: lower RP-LC retention time, 1 or 2 ? Please identify the chosen entry by its label.
2
(2: 674 s, 1: 966 s)
